Listed here: items and their measured koff.
- system name: T1, human/cynomolgus monkey ROR1 protein (Acro Biosystems, Cat. No.: RO1-H522y) (human/cynomolgus monkey, UniProt Q01973 30-403)
- T1 construct: Bought SPR analyte
- T1 sequence (Q01973 30-403 limits assumed): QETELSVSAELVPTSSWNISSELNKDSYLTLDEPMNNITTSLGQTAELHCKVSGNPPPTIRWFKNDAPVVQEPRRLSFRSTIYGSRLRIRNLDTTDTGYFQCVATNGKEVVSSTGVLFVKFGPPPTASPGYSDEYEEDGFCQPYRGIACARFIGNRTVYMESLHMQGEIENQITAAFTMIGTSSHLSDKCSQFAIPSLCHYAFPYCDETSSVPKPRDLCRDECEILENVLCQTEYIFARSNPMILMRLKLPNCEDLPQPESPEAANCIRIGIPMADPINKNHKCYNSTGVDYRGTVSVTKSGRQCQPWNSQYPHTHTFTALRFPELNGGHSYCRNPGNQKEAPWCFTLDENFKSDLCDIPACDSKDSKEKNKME
- protocol text: SPR (Biacore), antibody captured on anti-hIgG CM5 chip, ROR1 protein as analyte, 1:1 model
Unit s⁻¹ implied. Number only.

These solved cases illustrate the format of a correct answer.
ch3G9B1 (antibody, human IgG1, kappa, V domains shown, also called chimeric antibody of m3G9B1) VH: QVQLQQSGTELARPGASVKLSCKASGYTFTSYGITWVKQRTGQGLEWIGEIYPRSGNTYFNEKFKGKATLTADKSSSTAYMELRSLTSEDSAVYFCARDRTGTGVDDYWGQGTTLTVSS VL: DIVLTQSPASLSMAIGEKVTIRCITNTDIDDDMSWYQQKPGEPPNLLISEGNTLRPGVPSRFSSSGYGRDFVFTIENMLSEDVADYYCLQSNNLPYTFGGGTKLEIKR :: 0.0639
UC-961 (antibody, V domains shown) VH: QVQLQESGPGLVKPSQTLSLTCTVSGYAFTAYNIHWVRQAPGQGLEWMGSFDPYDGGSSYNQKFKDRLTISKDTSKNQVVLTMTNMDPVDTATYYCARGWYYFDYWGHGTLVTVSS VL: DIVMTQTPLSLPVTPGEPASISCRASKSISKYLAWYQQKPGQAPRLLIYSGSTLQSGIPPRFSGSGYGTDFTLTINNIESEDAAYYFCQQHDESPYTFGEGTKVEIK :: 0.0273

Lookup: Any idea what koff was measured for ch29H5D8 (antibody, human IgG1, kappa, V domains shown, also called chimeric antibody of m29H5D8) VH: EVQLQQSGAELARPGASVKLSCKASGYTFTNYGISWVKQRTGQGLEWIGEIYPRSVNTYYSAKFKGKATLTADKSSSTAYMELRSLTSEDSAVYFCARHYYGSSLDYWGQGTTLTVSS VL: DIVLTQSPASLSVATGEKVTIRCITSSDIEDDMNWYQQKPGEPPKLLISEGNSLRPGVPSRFSSSGYGTDFVFTIENTLSEDVADYYCLQSDNIFTFGSGTKLEIKR ?
Found: 0.00248

Each recorded value in this set is attributed to patent EP4772535A1.
